# measurement.target: T1, monkey CD73 (Novoprotein, Cat No. C121) (monkey, UniProt A0A2K5V5U7 27-549)
# T1 construct: Bought protein; also called monkey CD73 protein
# T1 sequence: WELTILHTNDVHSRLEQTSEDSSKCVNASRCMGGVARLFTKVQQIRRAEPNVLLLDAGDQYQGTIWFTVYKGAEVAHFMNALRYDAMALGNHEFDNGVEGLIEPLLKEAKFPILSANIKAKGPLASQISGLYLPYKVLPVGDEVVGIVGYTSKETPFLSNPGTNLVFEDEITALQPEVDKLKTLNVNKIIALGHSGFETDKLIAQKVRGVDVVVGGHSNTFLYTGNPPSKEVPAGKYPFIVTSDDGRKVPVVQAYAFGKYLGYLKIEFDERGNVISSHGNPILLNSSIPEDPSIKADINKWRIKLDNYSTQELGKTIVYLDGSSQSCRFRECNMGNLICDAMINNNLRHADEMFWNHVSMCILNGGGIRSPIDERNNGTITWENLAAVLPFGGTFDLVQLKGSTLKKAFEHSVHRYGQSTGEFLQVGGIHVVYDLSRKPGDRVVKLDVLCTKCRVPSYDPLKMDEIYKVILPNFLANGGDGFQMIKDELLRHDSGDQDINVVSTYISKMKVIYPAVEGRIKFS
# method.notes: SPR (Biacore T200), antibody captured on protein A chip, CD73 as analyte, 1:1 model
A collection of binders and their measured koff
Response body: numeric value in s⁻¹, unit text excluded.

[ask] Consider the binder 900697 (antibody, V domains shown, Constant regions are not restated) VH: QVQLVESGGGLVKPGGSLRLSCAASGFTFSKYAMSWVRQAPGKGLEWVAEISSGGGYINYADSVTGRFTISRDNAKNSLYLQMNSLRAEDTAVYYCARAIYYYGSSYNYYAMDYWGQGTTVTVSS VL: DIQMTQSPSSLSASVGDRVTITCRASQDVGTAEAWYQQKPGKAPKLLIYWASTLQSGVPSRFSGSGSGTDFTLTISSLQPEDFATYYCQQYSSYPLTFGQGTKLEIK and give its measured koff.
[reply] 0.000137

Further cases:
[ask] # get_value(readout='koff', item= 900581 (antibody, human IgG1, V domains shown) VH: EVQLVESGGGLVKPGGSLKLSCAASGFTFSKYAMSWVRQSPEKRLEWVAEISSGGGYINYPDTVTGRFTISRDNAKNTLYLEMSSLRSGDTAMYYCARAIYYYGSSYNYYAMDYWGQGTSVTVSS VL: DIVMTQSHKFMSTSVGDRVSITCKASQDVGTAEAWYQQKPGQSPKLLIYWASTRHTGVPDRFTGSGSGTDFTLTIGNVQSEDLADYFCQQYSSYPLTFGGGTKLEIK )
[reply] 0.000358

[ask] So what does the record say about koff for 900695 (antibody, V domains shown, Constant regions are not restated) VH: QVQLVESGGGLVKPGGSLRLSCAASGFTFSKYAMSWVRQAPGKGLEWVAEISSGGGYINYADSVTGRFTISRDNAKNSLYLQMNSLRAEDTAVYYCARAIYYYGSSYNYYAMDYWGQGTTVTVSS VL: DIQMTQSPSSLSASVGDRVTITCRASQDVGTAEAWYQQKPGKAPKLLIYWASTRHTGVPSRFSGSGSGTDFTLTISSLQPEDFATYYCQQYSSYPLTFGQGTKLEIK ?
[reply] 0.000148

[ask] # query: koff of entry 900696 (antibody, V domains shown, Constant regions are not restated) VH: QVQLVESGGGLVKPGGSLRLSCAASGFTFSKYAMSWIRQAPGKGLEWVAEISSGGGYINYADSVKGRFTISRDNAKNSLYLQMNSLRAEDTAVYYCARAIYYYGSSYNYYAMDYWGQGTTVTVSS VL: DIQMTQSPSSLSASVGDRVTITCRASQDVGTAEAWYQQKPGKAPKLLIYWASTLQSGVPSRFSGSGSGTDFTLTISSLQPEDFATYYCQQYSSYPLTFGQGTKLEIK
[reply] 0.000214
